# Subject Of Test: human glucagon receptor (human, UniProt P47871 26-477)
# Assay Summary: cell-based or functional assay
Starred links: 1 amine or outer side, 2 acyl side, 3 side chain; linkers in the order of their positions; H or OH if unused. Non-standard residues stand in square brackets, D forms with d. No end group written: not given here. *: point of attachment. NMe2F‑APPA = N-methyl-2-amino-5-(2-fluorophenyl)pentanoic acid, CN([C@@H](CCCc1ccccc1F)C(=O)[*:2])[*:1]; 2,4‑diF‑APPA = 2-amino-5-(2,4-difluorophenyl)pentanoic acid, O=C([C@H](CCCc1ccc(F)cc1F)N[*:1])[*:2]; AMCB = 2-amino-5-(4-chloro-2-methylphenyl)pentanoic acid, Cc1cc(Cl)ccc1CCC[C@H](N[*:1])C(=O)[*:2]; 2CF3,4F‑APPA = 2-amino-5-(4-fluoro-2-(trifluoromethyl)phenyl)pentanoic acid; Bip(2'-Et-4'-OMe) = CCc1cc(OC)ccc1-c1ccc(C[C@H](N)C(=O)O)cc1; 2F‑APPA = 2-amino-5-(2-fluorophenyl)pentanoic acid; αMePhe(2-F) = C[C@](N)(Cc1ccccc1F)C(=O)O; NMeBip(OMe) = N-methylated Bip(OMe); hhPhe = N[C@@H](CCCc1ccccc1)C(=O)O; NMeD = CN[C@@H](CC(=O)O)C(=O)O; aThr = C[C@H](O)[C@H](N)C(=O)O; NMeAPPA = not defined here; CNB = not defined here; Ac3c = NC1(C(=O)O)CC1; Aib = CC(C)(N)C(=O)O; Moc = COC(=O)*
Measured Quantity: inhibition of cAMP production, 1 µM (pmol/ml/µg prt)

Binder	Unit Label	Observed Result
H[Aib][CNB]G[aThr][αMePhe(2-F)][aThr]S[NMeD][NMeBip(OMe)][NMe2F‑APPA] (reading uncertain)	pmol/ml/µg prt	0
Moc-H[Aib]QG[aThr][αMePhe(2-F)][aThr]SD[Bip(2'-Et-4'-OMe)][2F‑APPA] (also: reduced (CH2) bonds between 9-10 and 10-11) [Seq. ID. No. 200: CH3OCO-H-Aib-QG-T(allo)-(α-Me-2F-Phe)-T(allo)-SD-(CH2)-Bip(OMe)-(CH2)-(2F-APPA)]	pmol/ml/µg prt	4
H[Ac3c]QGTFTSD[Bip(2'-Et-4'-OMe)][2CF3,4F‑APPA] [Seq. ID. No. 72: H-(ACP)-QGTFTSD-Bip(OMe)-(2CF3,4F-APPA)]	pmol/ml/µg prt	3
H[Aib][CNB]GTFTSD[Bip(2'-Et-4'-OMe)][2,4‑diF‑APPA] (reading uncertain) [Seq. ID. No. 78: H-Aib-(CNB)-GTFTSD-Bip(OMe)-(2,4-diF-APPA)]	pmol/ml/µg prt	18

(A) H[Aib][CNB]G[aThr][αMePhe(2-F)][aThr]SD[NMeBip(OMe)][NMeAPPA] (reading uncertain) [Seq. ID. No. 142: H-Aib-(CNB)-G-T(allo)-(α-Me-2F-Phe)-T(allo)-SD-((NMe)Bip(OMe))-((NMe)(APPA))]
(B) Moc-H[Aib]QGT[αMePhe(2-F)]TSD[Bip(2'-Et-4'-OMe)][hhPhe] (also: thioamide bonds between residues 9-10 and 10-11) [Seq. ID. No. 170: CH3OCO-H-Aib-QGT-(α-Me-2F-Phe)-TSD-(C═S)-Bip(OMe)-(C═S)-(APPA)]
*Q* # returns the entry with the larger inhibition of cAMP production, 1 µM; inputs A and B To answer, give the label that identifies your chosen option.
*A* A
(A: 2 pmol/ml/µg prt, B: 0 pmol/ml/µg prt)

(A) H[Aib]QGT[αMePhe(2-F)]TSD[Bip(2'-Et-4'-OMe)][AMCB] [Seq. ID. No. 40: H-Aib-QGT-(α-Me-2F-Phe)-TSD-Bip(OMe)-(AMCB)]
(B) H[Aib][CNB]GTFTSD[Bip(2'-Et-4'-OMe)][2F‑APPA] (reading uncertain) [Seq. ID. No. 77: H-Aib-(CNB)-GTFTSD-Bip(OMe)-(2F-APPA)]
(C) H-HSQGTFTSD[Bip(2'-Et-4'-OMe)][hhPhe]-NH2 [Seq. ID. No. 5: HSQGTFTSD-Bip(OMe)-(APPA)]
(D) Ac-H[Aib]QGT[αMePhe(2-F)]TSD[Bip(2'-Et-4'-OMe)][2F‑APPA] (also: reduced (CH2) bonds between 9-10 and 10-11) [Seq. ID. No. 195: CH3CO-H-Aib-QGT-(α-Me-2F-Phe)-TSD-(CH2)-Bip(OMe)-(CH2)-(2F-APPA)]
*Q* Arrange items by their inhibition of cAMP production, 1 µM values in increasing order. Write the labels out in the order the request specifies.
*A* C, D, A, B
